- Tested on: KM12 colon
- ASSAY_COMMENT: NCI tumour cell line growth inhibition, 48 h
Entries and their TGI

Consider the reported TGI for these molecules:
{"columns": ["MOLECULE", "ASSAY_READOUT", "ASSAY_VALUE"],
 "data": [
  ["O=C(O)c1ccc(NC(c2ccccc2)c2ccc3cccnc3c2O)cc1 (stereo unspecified)", "TGI", "> 100 µM"],
  ["Cc1c(/C=N\\NC(=S)N2CCN(C(=S)N/N=C\\c3c(C)n(C)n(-c4ccccc4)c3=O)CC2)c(=O)n(-c2ccccc2)n1C", "TGI", "> 100 µM"],
  ["CSc1nc(SC)c2c(CN=[N+]=[N-])c(Br)n(Cc3ccccc3)c2n1", "TGI", "> 100 µM"],
  ["C#CCNC(=O)NC(CCCNC(=O)OCc1ccccc1)C(=O)OCc1ccccc1 (stereo unspecified)", "TGI", "> 100 µM"]
]}

Lookup result for Cc1ccc(-c2c(N)nc(NC#N)nc2CCC(=O)Nc2ccccc2[N+](=O)[O-])cc1 ; measured TGI: > 100 µM

Lookup result for COc1cc2ncn(-c3cc(OCc4ccccc4Cl)c(C(N)=O)s3)c2cc1OC ; measured TGI: > 11.8 µM

Lookup result for Cc1cc([C@@H](C)Nc2ccccc2C(=O)O)c2nc(N3CCOCC3)cc(=O)n2c1 ; measured TGI: > 10 µM
